- MEASUREMENT_TARGET: PKC-zeta (Homo sapiens, UniProt Q05513)
- Construct: purchased Calbiochem
- Sequence (Q05513 1-592): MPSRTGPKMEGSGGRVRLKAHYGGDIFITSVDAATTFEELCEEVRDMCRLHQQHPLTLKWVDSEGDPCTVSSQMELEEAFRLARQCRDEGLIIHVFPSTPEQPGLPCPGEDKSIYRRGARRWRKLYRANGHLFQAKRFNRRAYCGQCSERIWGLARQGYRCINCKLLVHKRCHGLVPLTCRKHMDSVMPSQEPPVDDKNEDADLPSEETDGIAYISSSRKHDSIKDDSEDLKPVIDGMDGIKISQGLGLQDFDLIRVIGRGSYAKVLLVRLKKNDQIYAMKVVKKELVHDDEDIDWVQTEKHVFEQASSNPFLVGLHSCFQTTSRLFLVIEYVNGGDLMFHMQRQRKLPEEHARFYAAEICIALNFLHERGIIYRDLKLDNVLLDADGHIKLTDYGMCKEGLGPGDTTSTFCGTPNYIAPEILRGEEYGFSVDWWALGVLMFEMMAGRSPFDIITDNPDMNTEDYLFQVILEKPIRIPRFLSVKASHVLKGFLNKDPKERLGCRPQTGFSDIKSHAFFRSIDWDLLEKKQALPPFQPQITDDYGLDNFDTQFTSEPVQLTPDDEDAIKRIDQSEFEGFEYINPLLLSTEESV
- EXPERIMENTAL_PROTOCOL: In vitro kinase assay: peptide phosphorylation by PKC-zeta
- Format: biochemical
- SETTINGS: peptide concentration 1 uM
OUTCOME_MEASURE: phosphorylation by PKC zeta

Report phosphorylation by PKC zeta for 133 (LEKRGMLGKRPRRKSSRRKK) [compound 133] tested on PKC-zeta (Homo sapiens, UniProt Q05513).
27

For the record 152 (DLIEGRKGAQIVKRASLKRG) [compound 152] , what value of phosphorylation by PKC zeta is listed for PKC-zeta (Homo sapiens, UniProt Q05513)?
4

Recall the recorded phosphorylation by PKC zeta for 125 (PLKEKKRERKTSSKSSVRKR) [compound 125] with PKC-zeta (Homo sapiens, UniProt Q05513) and state it.
13

What phosphorylation by PKC zeta appears in the records for this substance with PKC-zeta (Homo sapiens, UniProt Q05513)? 165 (TEEKSKKRKKKHRKNSRKHK) [compound 165]
1

Query the reported phosphorylation by PKC zeta for PKC-zeta (Homo sapiens, UniProt Q05513); item: 140 (TELEGGFSRQRKRKLSFRRR) [compound 140]
24

Record 131 (WKGKRRSKARKKRK) [compound 131] : what is its phosphorylation by PKC zeta with PKC-zeta (Homo sapiens, UniProt Q05513)?
7

Lab request: please report phosphorylation by PKC zeta under test system PKC-zeta (Homo sapiens, UniProt Q05513) for 118 (RPQNTLKASKKKKRASFKRK) [compound 118]
46

Report phosphorylation by PKC zeta for 114 (KKKKRASFKRKSSKKG) [compound 114] tested on PKC-zeta (Homo sapiens, UniProt Q05513).
45

Hello, I am looking for reported phosphorylation by PKC zeta with PKC-zeta (Homo sapiens, UniProt Q05513) for 147 (RDIRQSPKRGFLRSASLGRR) [compound 147] . Could you help?
28

Recorded phosphorylation by PKC zeta for 129 (VQRHRSMRKTFARYLSFRRD) [compound 129] with PKC-zeta (Homo sapiens, UniProt Q05513), please?
51
